- Tested Target: p38a activated, mitogen-activated protein kinase-activated protein kinase 2 (MAPKAP-K2 or MK-2) enzyme (Homo sapiens (Human), UniProt P49137)
- Sequence (P49137 whole entry): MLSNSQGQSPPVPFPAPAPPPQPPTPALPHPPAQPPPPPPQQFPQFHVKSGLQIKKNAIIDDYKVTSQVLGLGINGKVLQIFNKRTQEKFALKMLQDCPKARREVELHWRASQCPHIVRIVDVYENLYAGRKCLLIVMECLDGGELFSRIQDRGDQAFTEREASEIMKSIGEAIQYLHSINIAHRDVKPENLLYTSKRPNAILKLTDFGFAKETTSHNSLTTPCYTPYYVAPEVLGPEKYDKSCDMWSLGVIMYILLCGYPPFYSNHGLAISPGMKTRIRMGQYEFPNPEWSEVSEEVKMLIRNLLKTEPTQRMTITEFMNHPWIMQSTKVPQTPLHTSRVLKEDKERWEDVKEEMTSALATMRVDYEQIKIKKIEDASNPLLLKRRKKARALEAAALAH
- Method Summary: MK2 Omnia continuous-read kinase assay for compound potency
- Study Conditions: [MK-2]=0.4 nM, [ATP]=1.0 mM, [ST3-Sox]=10 μM
- Experimental: The protocol below describes a continuous-read kinase assay optimized to measure potency of compounds against p38a activated, mitogen-activated protein kinase-activated protein kinase 2 (MAPKAP-K2 or MK-2) enzyme. […] Kinase reactions were started with the addition of 40 μL of MK-2 enzyme and monitored every 71 seconds for 30-240 minutes at λex360/λem485 in a Synergy^2, Synergy^4 or Synergy H^4 plate reader from BioTek (Winooski, Vt.). […]
pIC50: −log10 of the molar value.
Consider the following compounds; for each one, report its pIC50.

Supply recorded pIC50 for C=CC(=O)Nc1cc(-c2ncc3c(n2)-c2[nH]c4c(c2CC3)C(=O)NCC4)ccc1OCCOC [II-15] here.
> 7.00

Give the value of pIC50 reported for the following: C=CC(=O)Nc1cc(-c2ccc3c(ccc4sc5c(c43)NC[C@@H](C)NC5=O)n2)ccc1OC(F)(F)F [III-45]
> 7.00

Using known records, supply pIC50 for C=CC(=O)Nc1ccccc1NC(=O)c1ccc2cc3n(c2c1)C1(CCC1)CNC3=O [Compound V-14]
< 6.00

Indicate its recorded pIC50; the compound in question is C=CC(=O)N1c2cc(NC(=O)c3ccc4cc5n(c4c3)C3(CCC3)CNC5=O)ccc2OCC1(C)C [Compound V-58]
> 7.00

Quick one: give measured pIC50 for C=CC(=O)Nc1cc(-c2cc3c(ccc4c5c(n(C)c43)CCC5=O)cn2)ccc1N1CCN(C)CC1 [II-e-15]
> 7.00

Fill in reported pIC50 for this entry: C=CC(=O)N1CCOc2ncc(-c3nccc(-c4cc5c([nH]4)CCNC5=O)n3)cc21 [II-23]
> 7.00

State its pIC50: C=CC(=O)Nc1cc(-c2cc3c(cn2)CCc2c-3[nH]c3c2C(=O)NC2(CC2)C3)cnc1OCCOC [II-8]
> 7.00

Note down pIC50 recorded for C=CC(=O)N[C@@H]1CCCN(C(=O)c2ccc3cc4n(c3c2)C2(CCC2)CNC4=O)C1 [Compound V-52]
< 6.00

// Input: C=CC(=O)N1CCOc2ccc(NC(=O)c3ccc4sc5c(c4c3)NC[C@@H](C)NC5=O)cc21 [III-11] . Output its pIC50 only.
> 7.00

Name the recorded pIC50 of the compound listed here: C=CC(=O)N[C@H]1CCCC[C@H]1NC(=O)c1ccc2cc3n(c2c1)C1(CCC1)CNC3=O (racemic) [Compound V-46]
< 6.00

Please list pIC50 recorded for the compound C=CC(=O)Nc1cc(-c2ccc3c(ccc4sc5c(c43)NC[C@@H](C)NC5=O)n2)ccc1OCCOC [III-8]
6.30 to 7.00

State, in one line, measured pIC50 of C=CC(=O)Nc1cc(-c2ccc3c(ccc4sc5c(c43)NC[C@@H](C)NC5=O)n2)ccc1F [III-13]
> 7.00

Please report pIC50 for the following compound: C=CC(=O)Nc1cc(-c2cc3c(cn2)CCc2c-3[nH]c3c2C(=O)NCC3)ccc1OCCOC [II-16]
> 7.00

Complete the entry with pIC50 for C=CC(=O)NC1COCC1NC(=O)c1ccc2sc3c(c2c1)NC[C@@H](C)NC3=O (stereo partly shown) [III-48]
> 7.00

Please indicate pIC50 recorded for C=CC(=O)NC1CCCCC1NC(=O)c1ccc2cc3n(c2c1)C1(CCC1)CNC3=O (racemic) [Compound V-64]
< 6.00

For the compound C=CC(=O)Nc1cc(NC(=O)c2ccc3cc4n(c3c2)CCNC4=O)ccc1N1CCN(CC)CC1 [Compound V-1] , report pIC50.
6.00 to 6.30

The measured values listed here are drawn from patent US11098061B2.
